Molecular target: T1, rhesus serum albumin (rhesus, UniProt Q28522 17-600)
T1 construct: also called RhSA
T1 sequence (Q28522 17-600 limits assumed): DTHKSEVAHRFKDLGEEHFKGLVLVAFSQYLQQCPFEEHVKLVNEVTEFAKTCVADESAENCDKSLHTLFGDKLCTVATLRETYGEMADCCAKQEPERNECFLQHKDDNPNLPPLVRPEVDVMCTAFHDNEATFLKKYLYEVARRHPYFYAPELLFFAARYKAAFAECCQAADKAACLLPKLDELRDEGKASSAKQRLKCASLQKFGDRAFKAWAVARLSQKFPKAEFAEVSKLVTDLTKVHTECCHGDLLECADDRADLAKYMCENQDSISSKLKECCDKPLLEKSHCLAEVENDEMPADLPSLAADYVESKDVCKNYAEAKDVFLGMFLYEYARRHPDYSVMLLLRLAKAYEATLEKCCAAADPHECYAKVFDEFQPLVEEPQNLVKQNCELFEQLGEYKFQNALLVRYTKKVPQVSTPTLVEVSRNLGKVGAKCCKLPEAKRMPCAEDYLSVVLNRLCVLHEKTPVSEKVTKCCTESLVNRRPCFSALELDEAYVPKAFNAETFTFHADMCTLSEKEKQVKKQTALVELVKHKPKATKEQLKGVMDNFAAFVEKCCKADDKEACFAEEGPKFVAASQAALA
Assay: SPR (Biacore), albumin captured on CM5 chip, SABA flowed
Measure Name: Kd

Solved entries (count: 3):
SABA4.1 (designed binder) MGVSDVPRDLEMVAATPTSLLISWEDDSYYSRYYRITYGETGGNSPVQEFTVPSDLYTATISGLKPGVDYTITVYAVTYDVTDLIMHEPISINYRTEIDKPSQHHHHHH
> 1 µM
SABA1.1 (designed binder) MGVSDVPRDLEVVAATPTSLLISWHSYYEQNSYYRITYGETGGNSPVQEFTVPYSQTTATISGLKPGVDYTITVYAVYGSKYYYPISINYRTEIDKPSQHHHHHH
0.778 µM
SABA3.1 (designed binder) MGVSDVPRDLEVVAATPTSLLISWSNDGPGLSYYRITYGETGGNSPVQEFTVPSSQTTATISGLKPGVDYTITVYAVSYYTKKAYSAGPISINYRTEIDKPSQHHHHHH
0.431 µM

Entry SABA2.1 (designed binder) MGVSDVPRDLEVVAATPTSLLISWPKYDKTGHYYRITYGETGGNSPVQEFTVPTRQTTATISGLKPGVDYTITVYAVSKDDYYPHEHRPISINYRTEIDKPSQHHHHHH ; Kd = 0.0636 µM
